# subject-of-test: T1, G9a and GLP (Homo sapiens, UniProt Q96KQ7+Q9H9B1)
# T1 sequence (Q96KQ7 2-1210 limits assumed): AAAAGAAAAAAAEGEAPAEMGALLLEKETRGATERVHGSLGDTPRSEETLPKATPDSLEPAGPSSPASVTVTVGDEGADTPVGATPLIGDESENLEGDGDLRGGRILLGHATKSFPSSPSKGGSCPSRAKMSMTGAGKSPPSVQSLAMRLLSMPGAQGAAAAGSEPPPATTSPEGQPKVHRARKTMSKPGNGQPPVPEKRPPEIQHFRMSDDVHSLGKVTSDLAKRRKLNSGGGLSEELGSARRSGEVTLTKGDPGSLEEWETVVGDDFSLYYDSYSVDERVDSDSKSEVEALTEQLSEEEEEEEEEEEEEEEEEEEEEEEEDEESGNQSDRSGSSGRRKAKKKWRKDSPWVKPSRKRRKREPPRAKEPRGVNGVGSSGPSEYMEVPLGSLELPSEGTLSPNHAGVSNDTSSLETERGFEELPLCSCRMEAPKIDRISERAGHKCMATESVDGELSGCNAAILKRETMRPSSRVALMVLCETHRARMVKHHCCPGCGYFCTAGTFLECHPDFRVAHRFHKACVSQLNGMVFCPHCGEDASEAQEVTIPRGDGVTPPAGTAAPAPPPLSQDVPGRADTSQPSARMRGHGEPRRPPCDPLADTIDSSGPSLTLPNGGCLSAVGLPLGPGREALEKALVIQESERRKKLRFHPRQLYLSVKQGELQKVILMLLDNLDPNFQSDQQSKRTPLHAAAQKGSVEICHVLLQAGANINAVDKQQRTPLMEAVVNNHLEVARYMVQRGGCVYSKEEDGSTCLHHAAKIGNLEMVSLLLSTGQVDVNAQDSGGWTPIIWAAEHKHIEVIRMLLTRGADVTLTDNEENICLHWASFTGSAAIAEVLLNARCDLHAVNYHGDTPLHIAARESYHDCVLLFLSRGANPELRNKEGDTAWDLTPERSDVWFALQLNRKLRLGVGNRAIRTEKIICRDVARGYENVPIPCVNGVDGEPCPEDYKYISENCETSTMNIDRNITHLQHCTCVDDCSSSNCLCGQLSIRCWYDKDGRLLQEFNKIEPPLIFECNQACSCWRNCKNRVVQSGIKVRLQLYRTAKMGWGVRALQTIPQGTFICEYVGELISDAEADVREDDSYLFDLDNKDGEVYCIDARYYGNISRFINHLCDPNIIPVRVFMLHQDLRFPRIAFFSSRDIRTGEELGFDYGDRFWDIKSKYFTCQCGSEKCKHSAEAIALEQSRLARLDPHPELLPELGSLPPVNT
# T1 sequence (Q9H9B1 2-1298 limits assumed): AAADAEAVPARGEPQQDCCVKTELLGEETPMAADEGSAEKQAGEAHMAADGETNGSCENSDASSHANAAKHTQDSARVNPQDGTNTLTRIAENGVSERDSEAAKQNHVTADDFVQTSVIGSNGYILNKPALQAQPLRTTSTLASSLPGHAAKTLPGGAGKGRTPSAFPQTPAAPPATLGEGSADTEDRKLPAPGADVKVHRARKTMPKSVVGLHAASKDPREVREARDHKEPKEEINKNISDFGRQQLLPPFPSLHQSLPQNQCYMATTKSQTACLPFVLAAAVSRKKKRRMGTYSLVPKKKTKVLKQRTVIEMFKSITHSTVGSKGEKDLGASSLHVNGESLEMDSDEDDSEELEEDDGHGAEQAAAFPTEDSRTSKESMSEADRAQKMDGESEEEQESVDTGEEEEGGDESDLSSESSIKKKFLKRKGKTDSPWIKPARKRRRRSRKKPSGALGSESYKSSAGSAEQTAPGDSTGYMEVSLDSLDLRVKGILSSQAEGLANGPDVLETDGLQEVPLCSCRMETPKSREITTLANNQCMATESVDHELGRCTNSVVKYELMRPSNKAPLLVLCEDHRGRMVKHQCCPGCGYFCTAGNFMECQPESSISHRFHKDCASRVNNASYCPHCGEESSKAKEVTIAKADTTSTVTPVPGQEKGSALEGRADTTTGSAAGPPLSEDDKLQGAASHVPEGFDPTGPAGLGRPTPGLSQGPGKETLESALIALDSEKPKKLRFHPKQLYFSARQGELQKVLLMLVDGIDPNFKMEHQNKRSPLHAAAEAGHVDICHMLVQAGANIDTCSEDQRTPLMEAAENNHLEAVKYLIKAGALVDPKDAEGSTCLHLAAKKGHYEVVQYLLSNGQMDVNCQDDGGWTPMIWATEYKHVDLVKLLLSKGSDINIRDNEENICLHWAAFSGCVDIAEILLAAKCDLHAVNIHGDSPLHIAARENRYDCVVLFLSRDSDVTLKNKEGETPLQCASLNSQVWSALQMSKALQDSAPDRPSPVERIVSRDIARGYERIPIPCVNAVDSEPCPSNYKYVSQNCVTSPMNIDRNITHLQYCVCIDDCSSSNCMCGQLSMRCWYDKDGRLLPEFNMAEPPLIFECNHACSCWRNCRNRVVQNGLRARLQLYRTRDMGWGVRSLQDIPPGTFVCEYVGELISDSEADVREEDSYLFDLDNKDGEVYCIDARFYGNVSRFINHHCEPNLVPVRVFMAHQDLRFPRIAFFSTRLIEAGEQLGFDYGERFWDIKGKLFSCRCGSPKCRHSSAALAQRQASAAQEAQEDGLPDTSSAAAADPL
# method-summary: Triple SILAC pull-down after UNC0638 treatment of 293T cells, DMSO/UNC0638 ratio of protein captured by 3×MBT;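 also: mass spectrometry (Q-Exactive) SILAC quantitation, DMSO/UNC0638 ratio computed after subtracting 3×MBTD355N mutant pull-down background, only proteins with at least twofold 3×MBT over mutant signal considered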
# Type: cell-based
# Set-up: cells were treated for 24 hours with UNC0638 at 2.5 μM or DMSO vehicle control; endogenous in cells; host or cells: HEK 293T
# measurement-parameters: SILAC ratio DMSO/UNC0638 of protein pulled down with 3xMBT; UNC0638 in heavy SILAC media
# cutoff 0.3 log base 2 applies to Relative to UNC0638 UNC Heavy; >= gives t, < gives f

{"molecule": "CRKL (protein, UniProt P46109 1-303, looked up) Crk-like protein: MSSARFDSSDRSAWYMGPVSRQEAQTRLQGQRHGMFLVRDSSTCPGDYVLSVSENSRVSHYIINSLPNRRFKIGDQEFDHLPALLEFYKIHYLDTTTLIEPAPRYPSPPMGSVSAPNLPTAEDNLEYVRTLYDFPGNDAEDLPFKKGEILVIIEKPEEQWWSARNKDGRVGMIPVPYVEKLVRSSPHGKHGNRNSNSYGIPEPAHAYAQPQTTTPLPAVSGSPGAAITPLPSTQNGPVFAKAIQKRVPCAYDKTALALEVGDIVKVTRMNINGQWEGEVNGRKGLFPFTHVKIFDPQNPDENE", "assigned-category": "t"}
{"molecule": "NUDT16L1 (protein, UniProt Q9BRJ7 1-211, looked up) Tudor-interacting repair …: MSTAAVPELKQISRVEAMRLGPGWSHSCHAMLYAANPGQLFGRIPMRFSVLMQMRFDGLLGFPGGFVDRRFWSLEDGLNRVLGLGLGCLRLTEADYLSSHLTEGPHRVVAHLYARQLTLEQLHAVEISAVHSRDHGLEVLGLVRVPLYTQKDRVGGFPNFLSNAFVSTAKCQLLFALKVLNMMPEEKLVEALAAATEKQKKALEKLLPASS", "assigned-category": "t"}
{"molecule": "HNRNPA3 (protein, UniProt P51991 1-378, looked up) Heterogeneous nuclear …: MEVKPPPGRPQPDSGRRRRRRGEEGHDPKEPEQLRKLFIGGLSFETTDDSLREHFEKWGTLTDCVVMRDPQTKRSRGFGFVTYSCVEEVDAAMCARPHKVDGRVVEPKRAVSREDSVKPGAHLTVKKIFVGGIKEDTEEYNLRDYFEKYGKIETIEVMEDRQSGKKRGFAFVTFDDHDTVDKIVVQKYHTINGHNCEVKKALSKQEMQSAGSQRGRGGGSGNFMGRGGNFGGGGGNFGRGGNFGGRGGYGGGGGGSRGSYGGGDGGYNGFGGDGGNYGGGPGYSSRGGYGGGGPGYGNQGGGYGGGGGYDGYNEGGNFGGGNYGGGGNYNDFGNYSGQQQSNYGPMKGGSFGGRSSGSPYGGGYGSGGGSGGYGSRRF", "assigned-category": "f"}

Now let's try a different one.
Does the molecule LSM12 (protein, UniProt Q3MHD2 2-195, looked up) Protein LSM12: AAPPGEYFSVGSQVSCRTCQEQRLQGEVVAFDYQSKMLALKCPSSSGKPNHADILLINLQYVSEVEIINDRTETPPPLASLNVSKLASKARTEKEEKLSQAYAISAGVSLEGQQLFQTIHKTIKDCKWQEKNIVVMEEVVITPPYQVENCKGKEGSALSHVRKIVEKHFRDVESQKILQRSQAQQPQKEAALSS have recorded Relative to UNC0638 UNC Heavy that is 0.3 log base 2 or more?
f

Where do the numbers come from? From patent US20140274782A1.
